- Tested on: Aerobactin synthetase IucA (Klebsiella pneumoniae hvKP1)
- EXPERIMENT_DESCRIPTION: Biochemical IucA enzyme inhibition primary screen of the Spectrum library (AID 1346200);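 note: 100% = wells without compound and 0% = wells lacking enzyme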
- MEASUREMENT_CONDITIONS: malachite green pyrophosphate, A620, at 8 µM, stronger effect = lower value
READOUT_TYPE: activity remaining (%)
Please respond with the number in % and leave the unit unwritten.

1) C#C[C@]1(O)CCC2C3CCC4=Cc5oncc5C[C@]4(C)C3CC[C@@]21C (some centres undefined) = 120
2) O=C(CCc1ccc(O)cc1)c1c(O)cc(O)cc1O[C@@H]1O[C@H](CO)[C@@H](O)[C@H](O)[C@H]1O = 105
3) NCCCC(=O)O = 119

Tell me activity remaining of CC(C)(C)NC[C@H](O)c1ccc(O)c(CO)c1 when tested on Aerobactin synthetase IucA (Klebsiella pneumoniae hvKP1).
112

Tell me activity remaining of C[N+]1(C)CCCC(OC(=O)C(O)(c2ccccc2)c2ccccc2)C1 (centres undefined) when tested on Aerobactin synthetase IucA (Klebsiella pneumoniae hvKP1).
111

Tell me activity remaining of CC1(C)S[C@@H]2[C@H](NC(=O)C(C(=O)O)c3ccccc3)C(=O)N2[C@H]1C(=O)O (some centres undefined) when tested on Aerobactin synthetase IucA (Klebsiella pneumoniae hvKP1).
114

Tell me activity remaining of CC(C(=O)O)c1ccc(C(=O)c2cccs2)cc1 (centres undefined) when tested on Aerobactin synthetase IucA (Klebsiella pneumoniae hvKP1).
104

Tell me activity remaining of COc1ccc2c(c1OC)C(=O)O[C@@H]2[C@@H]1c2cc3c(cc2CCN1C)OCO3 when tested on Aerobactin synthetase IucA (Klebsiella pneumoniae hvKP1).
113

Tell me activity remaining of O=C(O)C1=C(CSc2nnnn2CS(=O)(=O)O)CS[C@@H]2C(NC(=O)[C@H](O)c3ccccc3)C(=O)N12 (some centres undefined) when tested on Aerobactin synthetase IucA (Klebsiella pneumoniae hvKP1).
116

This collection of values is drawn from PubChem BioAssay.
